Assay: Pharmacokinetic parameters for Orlistat evaluated after of oral administration of Orlistat capsules.
Type: ADME, organism-based
Conditions: human, in vivo, dosed compound id 42, dosed compound name ORLISTAT, tissue Plasma
propertyName: half-life

Exercise: Tell me its half-life given CCCCCCCCCCC[C@@H](C[C@@H]1OC(=O)[C@H]1CCCCCC)OC(=O)[C@H](CC(C)C)NC=O [ORLISTAT] as the entry.
Key: 1 to 2 h

* * *

Assay: Pharmacokinetic parameters for Orlistat evaluated after of oral administration of Orlistat capsules.
Format: ADME, organism-based
Conditions: human, in vivo, dosed compound id 42, dosed compound name ORLISTAT, tissue Plasma, read-out: Protein binding
propertyName: fraction unbound

Exercise: Tell me its fraction unbound given CCCCCCCCCCC[C@@H](C[C@@H]1OC(=O)[C@H]1CCCCCC)OC(=O)[C@H](CC(C)C)NC=O as the entry.
Key: 0.01 to 0.99
